Substrate: PET
Experiment: Proxy for plastic degradation [kcat] (s⁻¹)
Conditions: pH 9
Measure Name: Proxy for plastic degradation

Protein	Measure Name	Measured Value
unnamed (protein) MNFPRASRLMQAAVLGGLMAVSAAATAQTNPYARGPNPTAASLEASAGPFTVRSFTVSRPSGYGAGTVYYPTNAGGTVGAIAIVPGYTARQSSIKWWGPRLASHGFVVITIDTNSTLDQPSSRSSQQMAALRQVASLNGTSSSPIYGKVDTARMGVMGWSMGGGGSLISAANNPSLKAAAPQAPWDSSTNFSSVTVPTLIFACENDSIAPVNSSALPIYDSMSRNAKQFLEINGGSHFCANSGNSNQALIGKKGVAWMKRFMDNDTRYSTFACENPNSTRVSDFRTANCS	Proxy for plastic degradation	0.035
unnamed (protein) MDGVLWRVRTAALMAALLALAAWALWASPSVEAQSNPYQRGPNPTRSALTADGPFSVATYTVSRLSVSGFGGVIYYPTGTSLTFGGIAMSPGYTADASSLAWLGRRLASHGFVVLVINTNSRFDYPDSRASQLSAALNYLRTSSPSAVRARLDANRLAVAGHSMGGGGTLRIAEQNPSLKAAVPLTPWHTDKTFNTSVPVLIVGAEADTVAPVSQHAIPFYQNLPSTTPKVYVELDNASHSAPNSNNAAISVYTISWMKLWVDNDTRYRQFLCNVNDPALSDFRTNNRHCQCQ	Proxy for plastic degradation	0.035
